Parameter: pKd. Scope: all listed entries.
MEASUREMENT_TARGET: recombinant human Hsp90α MD (Homo sapiens)
Construct: made in house; host or cells: Escherichia coli BL21 (DE3)
TEST_DETAILS: Intrinsic tryptophan fluorescence spectroscopy (quenching screen and KD titration) with Hsp90α MD
Assay type: binding
EXPERIMENTAL_SETUP: titration, 20 µM Hsp90 MD, 20 mM Tris pH 7.5, 0.2 M KCl; triplicate, error = SD; read-out: KD to Hsp90α MD
Excerpt: As a result of virtual screening, 24 hit compounds (Figure 1 and Table S3) were selected for further experimental testing against recombinant human Hsp90α MD (residues 294 to 554, Table S4) and human Hsp90β MD (residues 286 to 546, Table S5). As there are tryptophan residues located within the defined binding pocket in both Hsp90α MD and Hsp90β MD, intrinsic tryptophan fluorescence quenching experiment was used to screen the binding of our virtual hits to the proteins. […]
pKd: −log10 of the molar value.

COMPOUND: CC(=O)N[C@H]1[C@H](Oc2ccc3c(=O)c(-c4ccc5c(c4)OCCCO5)c(C)oc3c2)O[C@H](CO)[C@@H](O)[C@@H]1O
pKd: 3.30
//
COMPOUND: COc1cc(C2NC(C(=O)O)Cc3c2[nH]c2ccc(OCc4ccccc4)cc32)cc(OC)c1OC (centres unmarked)
pKd: 3.18
//
COMPOUND: CCC(C)[C@@H](NC(=O)C(C)Oc1ccc2c(-c3ccccc3)cc(=O)oc2c1)C(=O)O (some centres unmarked)
pKd: 3.52
//
COMPOUND: CCC[C@@H](NC(=O)C(C)Oc1ccc2c(-c3ccccc3)cc(=O)oc2c1)C(=O)O (some centres unmarked)
pKd: 3.33
//
COMPOUND: CC(C)=CCC[C@]1(C)C=Cc2c(O)c3c(c(CC=C(C)C)c2O1)O[C@]12C(=C[C@@H]4C[C@H]1C(C)(C)O[C@@]2(C/C=C(/C)C(=O)O)C4=O)C3=O [Gambogic acid, reference compound]
pKd: 3.71
//
COMPOUND: O=C(CNC(=O)OCc1ccccc1)Oc1cc(O)c2c(=O)cc(-c3ccccc3)oc2c1
pKd: 3.55
//
COMPOUND: COc1cc(C(=O)NC(Cc2ccccc2)C(=O)O)cc(OC)c1OC (centres unmarked)
pKd: 3.34
//
COMPOUND: O=C(CC1=C(O)C(=O)c2ccccc2C1=O)c1ccccc1
pKd: 4.04

###

MEASUREMENT_TARGET: recombinant human Hsp90α MD (Homo sapiens, UniProt P07900)
Construct: made in house; host or cells: Escherichia coli BL21 (DE3)
TEST_DETAILS: Intrinsic tryptophan fluorescence spectroscopy (quenching screen and KD titration) with Hsp90α MD
Format: binding
pKd: −log10 of the molar value.

MOLECULE: CN[C@H]1CCc2cc(OC)c(OC)c(OC)c2-c2ccc(NCc3cccnc3)c(=O)cc21 [Compound 10]
pKd: < 3.30

###

MEASUREMENT_TARGET: recombinant human Hsp90β MD (Homo sapiens)
Construct: made in house; host or cells: Escherichia coli BL21 (DE3)
Sequence (P08238 286-546): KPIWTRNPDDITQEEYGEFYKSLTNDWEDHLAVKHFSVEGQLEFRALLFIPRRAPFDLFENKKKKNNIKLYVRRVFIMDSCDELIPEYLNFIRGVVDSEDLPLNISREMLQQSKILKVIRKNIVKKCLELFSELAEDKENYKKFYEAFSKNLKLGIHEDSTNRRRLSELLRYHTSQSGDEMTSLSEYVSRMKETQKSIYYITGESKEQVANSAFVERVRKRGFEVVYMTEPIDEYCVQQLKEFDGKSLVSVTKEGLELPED
TEST_DETAILS: Intrinsic tryptophan fluorescence spectroscopy (quenching screen and KD titration) with Hsp90β MD
Type: binding
EXPERIMENTAL_SETUP: titration, 20 µM Hsp90 MD, 20 mM Tris pH 7.5, 0.2 M KCl; triplicate, error = SD; read-out: KD to Hsp90β MD

COMPOUND: CCC(C)[C@@H](NC(=O)C(C)Oc1ccc2c(-c3ccccc3)cc(=O)oc2c1)C(=O)O (stereo partly drawn)
INEQUALITY_SYMBOL: =
Kd [µM]: 57

COMPOUND: CCC[C@@H](NC(=O)C(C)Oc1ccc2c(-c3ccccc3)cc(=O)oc2c1)C(=O)O (stereo partly drawn)
INEQUALITY_SYMBOL: =
Kd [µM]: 136

COMPOUND: O=C(CNC(=O)OCc1ccccc1)Oc1cc(O)c2c(=O)cc(-c3ccccc3)oc2c1
INEQUALITY_SYMBOL: >
Kd [µM]: 500

COMPOUND: O=C(CC1=C(O)C(=O)c2ccccc2C1=O)c1ccccc1
INEQUALITY_SYMBOL: <
Kd [µM]: 20

COMPOUND: CC(C)=CCC[C@]1(C)C=Cc2c(O)c3c(c(CC=C(C)C)c2O1)O[C@]12C(=C[C@@H]4C[C@H]1C(C)(C)O[C@@]2(C/C=C(/C)C(=O)O)C4=O)C3=O [Gambogic acid, reference compound]
INEQUALITY_SYMBOL: =
Kd [µM]: 33

COMPOUND: COc1cc(C(=O)NC(Cc2ccccc2)C(=O)O)cc(OC)c1OC (stereo not drawn)
INEQUALITY_SYMBOL: >
Kd [µM]: 500
